Molecular target: Human factor D (Homo sapiens (Human))
Assay: Human Factor D Assay
Type: biochemical
Conditions: human factor D 80 nM, substrate Z-L-Lys-SBzl, DTNB
Procedure: Human factor D (purified from human serum, Complement Technology, Inc.) at 80 nM final concentration is incubated with test compound at various concentrations for 5 minutes at room temperature in 50 mM Tris, 1M NaCl, pH 7.5. A synthetic substrate Z-L-Lys-SBzl and DTNB (Ellman's reagent) are added to final concentrations of 100 μM each. The increase in color is recorded at OD405 nm in a microplate in kinetic mode over 30 minutes with 30 second time points in a spectrofluorimeter. […]
MEASURED METRIC: IC50

MOLECULE: Cc1cc(NC(=O)[C@@H]2C[C@@H](F)CN2C(=O)Cn2nc(C(N)=O)c3cc(-c4ccnnc4)ccc32)n(-c2ccccc2F)n1 [Compound 158]
TARGET OR SYSTEM: Human factor D (Homo sapiens (Human))
MEASURED METRIC: IC50
VALUE: > 10 µM

MOLECULE: CC(=O)c1cn(CC(=O)N2C[C@H](F)C[C@H]2C(=O)Nc2nc(-c3ccc4c(c3)CCCC4)cs2)c2ccc(-c3ccnnc3)cc12 [Compound 54]
TARGET OR SYSTEM: Human factor D (Homo sapiens (Human))
MEASURED METRIC: IC50
VALUE: > 10 µM

MOLECULE: CC(=O)c1cn(CC(=O)N2C[C@H](F)C[C@H]2C(=O)Nc2cccc(Br)n2)c2ccc(-c3cnc(F)nc3)cc12 [Compound 83]
TARGET OR SYSTEM: Human factor D (Homo sapiens (Human))
MEASURED METRIC: IC50
VALUE: < 1 µM

MOLECULE: CC(=O)c1cn(CC(=O)N2C[C@H](F)C[C@H]2C(=O)Nc2ccccc2-n2nccc2C)c2ccc(-c3ccnnc3)cc12 [Compound 72]
TARGET OR SYSTEM: Human factor D (Homo sapiens (Human))
MEASURED METRIC: IC50
VALUE: > 10 µM

MOLECULE: COc1cc(C)cc2c1OCCC2NC(=O)[C@@H]1C[C@@H](F)CN1C(=O)Cn1nc(C(N)=O)c2cc(-c3ccnnc3)ccc21 (stereo partly drawn) [Compound 122]
TARGET OR SYSTEM: Human factor D (Homo sapiens (Human))
MEASURED METRIC: IC50
VALUE: > 10 µM

MOLECULE: COc1ncc(-c2ccc3c(c2)c(C(C)=O)cn3CC(=O)N2C[C@H](F)C[C@H]2C(=O)Nc2cccc(Br)n2)cn1 [Compound 21]
TARGET OR SYSTEM: Human factor D (Homo sapiens (Human))
MEASURED METRIC: IC50
VALUE: < 1 µM

###

biological target: Human factor D (Homo sapiens (Human), UniProt P00746); assay: Human Factor D Assay; assay type: biochemical; conditions: human factor D 80 nM, substrate Z-L-Lys-SBzl, DTNB
Sequence (P00746 26-253): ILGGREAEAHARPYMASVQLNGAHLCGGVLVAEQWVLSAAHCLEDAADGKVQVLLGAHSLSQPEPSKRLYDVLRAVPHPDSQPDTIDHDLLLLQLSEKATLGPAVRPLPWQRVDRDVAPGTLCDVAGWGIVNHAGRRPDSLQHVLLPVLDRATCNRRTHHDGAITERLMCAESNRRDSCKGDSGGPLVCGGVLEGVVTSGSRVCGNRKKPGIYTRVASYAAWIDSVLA
pIC50: −log10 of the molar value.
The compounds listed here are annotated with their pIC50.
MEASURED METRIC: pIC50

QUERY SMILES: NC(=O)c1nn(CC(=O)N2C[C@H](F)C[C@H]2C(=O)NCc2ccncc2)c2ccc(-c3ccnnc3)cc12
VALUE: < 5.00
//
QUERY SMILES: CC(=O)c1cn(CC(=O)N2C[C@H](F)C[C@H]2C(=O)Nc2nnc(-c3ccc(Cl)c(Cl)c3)s2)c2ccc(-c3ccnnc3)cc12
VALUE: < 5.00
//
QUERY SMILES: CC(=O)c1cn(CC(=O)N2C[C@H](F)C[C@H]2C(=O)Nc2noc(-c3ccccc3Cl)n2)c2ccc(-c3ccnnc3)cc12
VALUE: > 6.00
//
QUERY SMILES: CC(=O)c1cn(CC(=O)N2C[C@H](F)C[C@H]2C(=O)NCc2cccc(Cl)c2F)c2ccc(-c3cnc(C)nc3)cc12
VALUE: > 6.00
//
QUERY SMILES: NC(=O)c1nn(CC(=O)N2C[C@H](F)C[C@H]2C(=O)Nc2cccc(OCc3ccccc3)n2)c2ccc(-c3ccnnc3)cc12
VALUE: < 5.00
//
QUERY SMILES: NC(=O)c1nn(CC(=O)N2C[C@H](F)C[C@H]2C(=O)Nc2cccc(Cl)c2-n2cncn2)c2ccc(-c3ccnnc3)cc12
VALUE: < 5.00

###

The compounds listed here are annotated with their pIC50.
target: Human factor D (Homo sapiens (Human), UniProt P00746); assay: Human Factor D Assay; assay type: biochemical; conditions: human factor D 80 nM, substrate Z-L-Lys-SBzl, DTNB
pIC50: −log10 of the molar value.

COMPOUND: CC(=O)c1cn(CC(=O)N2C[C@H](F)C[C@H]2C(=O)Nc2cccc(Br)n2)c2ccc(-c3cccc(Cl)c3)cc12 [Compound 119]
pIC50: > 6.00
//
COMPOUND: NC(=O)c1nn(CC(=O)N2[C@@H]3C[C@@H]3C[C@H]2C(=O)Nc2cccc(-c3ccccc3Cl)c2F)c2ccc(-c3cncnc3)cc12 [Compound 6]
pIC50: > 6.00
//
COMPOUND: NC(=O)c1nn(CC(=O)N2C[C@H](F)C[C@H]2C(=O)Nc2nnc(-c3ccccc3Cl)s2)c2ccc(-c3ccnnc3)cc12 [Compound 115]
pIC50: < 5.00
//
COMPOUND: CC(=O)c1cn(CC(=O)N2C[C@H](F)C[C@H]2C(=O)Nc2cccc(Br)n2)c2ccc(-c3ccc(C)nc3)cc12 [Compound 120]
pIC50: > 6.00
//
COMPOUND: NC(=O)c1nn(CC(=O)N2C[C@H](F)C[C@H]2C(=O)NCc2cc(F)cc(Cl)c2)c2ccc(-c3ccnnc3)cc12 [Compound 62]
pIC50: > 6.00
//
COMPOUND: Cc1ncc(-c2ccc3c(c2)c(C(N)=O)nn3CC(=O)N2C[C@H](F)C[C@H]2C(=O)Nc2cccc(Br)n2)cn1 [Compound 101]
pIC50: > 6.00

###

Target: UniProt:P00746
Test: Human Factor D Assay
Format: biochemical
Conditions: human factor D 80 nM, substrate Z-L-Lys-SBzl, DTNB
Method: Human factor D (purified from human serum, Complement Technology, Inc.) at 80 nM final concentration is incubated with test compound at various concentrations for 5 minutes at room temperature in 50 mM Tris, 1M NaCl, pH 7.5. A synthetic substrate Z-L-Lys-SBzl and DTNB (Ellman's reagent) are added to final concentrations of 100 μM each. The increase in color is recorded at OD405 nm in a microplate in kinetic mode over 30 minutes with 30 second time points in a spectrofluorimeter. […]
The compounds listed here are annotated with their IC50.
MEASURED METRIC: IC50

COMPOUND: CC(=O)c1cn(CC(=O)N2C[C@H](F)C[C@H]2C(=O)Nc2c[nH]nc2-c2ccc(Cl)cc2Cl)c2ccc(-c3ccnnc3)cc12 [Compound 156]
TARGET OR SYSTEM: UniProt:P00746
VALUE: > 10 µM
//
COMPOUND: CC(=O)c1cn(CC(=O)N2C[C@H](F)C[C@H]2C(=O)Nc2cccc(-c3ccccc3Cl)c2F)c2ccc(-c3cnc(C)nc3)cc12 [Compound 102]
TARGET OR SYSTEM: UniProt:P00746
VALUE: < 1 µM
//
COMPOUND: NC(=O)c1nn(CC(=O)N2C[C@H](F)C[C@H]2C(=O)Nc2cccc(OC(F)(F)F)c2F)c2ccc(-c3cncnc3)cc12 [Compound 9]
TARGET OR SYSTEM: UniProt:P00746
VALUE: < 1 µM
//
COMPOUND: CNc1ncc(-c2ccc3c(c2)c(C(C)=O)cn3CC(=O)N2C[C@H](F)C[C@H]2C(=O)Nc2cccc(-c3ccccc3Cl)c2F)cn1 [Compound 188]
TARGET OR SYSTEM: UniProt:P00746
VALUE: < 1 µM
//
COMPOUND: CC(=O)c1cn(CC(=O)N2C[C@H](F)C[C@H]2C(=O)Nc2ccc(CN)cc2)c2ccc(-c3ccnnc3)cc12 [Compound 85]
TARGET OR SYSTEM: UniProt:P00746
VALUE: > 10 µM
//
COMPOUND: NC(=O)c1nn(CC(=O)N2C[C@H](F)C[C@H]2C(=O)Nc2cccc3c2CN(c2ccccn2)C3)c2ccc(-c3ccnnc3)cc12 [Compound 104]
TARGET OR SYSTEM: UniProt:P00746
VALUE: > 10 µM

###

molecular target: Human factor D (Homo sapiens (Human)); test: Human Factor D Assay; assay type: biochemical; settings: human factor D 80 nM, substrate Z-L-Lys-SBzl, DTNB
pIC50: −log10 of the molar value.
The molecules listed here are annotated with their pIC50.
MEASURED METRIC: pIC50

MOLECULE: NC(=O)c1nn(CC(=O)N2C[C@H](F)C[C@H]2C(=O)Nc2cccnc2)c2ccc(-c3ccnnc3)cc12 [Compound 47]
TARGET OR SYSTEM: Human factor D (Homo sapiens (Human))
MEASURED METRIC: pIC50
VALUE: < 5.00

MOLECULE: NC(=O)c1nn(CC(=O)N2C[C@H](F)C[C@H]2C(=O)Nc2cccc(-c3ccccc3Cl)c2F)c2ccc(-c3ccc(F)nc3)cc12 [Compound 12]
TARGET OR SYSTEM: Human factor D (Homo sapiens (Human))
MEASURED METRIC: pIC50
VALUE: > 6.00

MOLECULE: CC(=O)Nc1ncc(-c2ccc3c(c2)c(C(C)=O)cn3CC(=O)N2C[C@H](F)C[C@H]2C(=O)Nc2cccc(Br)n2)cn1 [Compound 118]
TARGET OR SYSTEM: Human factor D (Homo sapiens (Human))
MEASURED METRIC: pIC50
VALUE: > 6.00

MOLECULE: CC(=O)c1cn(CC(=O)N2C[C@H](F)C[C@H]2C(=O)N[C@H]2CCC[C@@H]2OCc2ccccc2)c2ccc(-c3ccnnc3)cc12 [Compound 77]
TARGET OR SYSTEM: Human factor D (Homo sapiens (Human))
MEASURED METRIC: pIC50
VALUE: < 5.00

MOLECULE: NC(=O)c1nn(CC(=O)N2C[C@H](F)C[C@H]2C(=O)Nc2cccc(Cl)c2C(F)(F)F)c2ccc(-c3ccnnc3)cc12 [Compound 93]
TARGET OR SYSTEM: Human factor D (Homo sapiens (Human))
MEASURED METRIC: pIC50
VALUE: < 5.00

MOLECULE: CNC(=O)[C@@H]1C[C@@H](F)CN1C(=O)Cn1nc(C(N)=O)c2cc(-c3ccnnc3)ccc21 [Compound 79]
TARGET OR SYSTEM: Human factor D (Homo sapiens (Human))
MEASURED METRIC: pIC50
VALUE: < 5.00
